assay: Biodistribution studies in HEK-uPAR xenograft-bearing nude mice; details: female, CD1/nude, mouse, brain, 5 MBq (0.5 nmol), total radioactivity, 24 h p.i.; 5 MBq, 0.5 nmol; decay-corrected; average ± SD, n=3 animals
Overview of recorded tissue uptake at 24 h for various molecules
Reply numerically in %ID/g, unit not repeated.

CC(C)C[C@H](NC(=O)[C@H](Cc1ccc(O)cc1)NC(=O)[C@@H](CCCNC(=N)N)NC(=O)[C@@H](CO)NC(=O)[C@H](Cc1ccccc1)NC(=O)[C@H](CC1CCCCC1)NC(=O)[C@H](CC(=O)O)NC(=O)[C@H](CCCCNC(=O)CCCc1ccc(I)cc1)NC(=O)[C@@H](N)CCCCNC(=O)CN1CCN(CC(=O)O)CCN(CC(=O)O)CCN(CC(=O)O)CC1)C(=O)N[C@@H](Cc1c[nH]c2ccccc12)C(=O)N[C@@H](CO)C(N)=O [[^177Lu]Lu-uPAR-04, metal not drawn] | 0.14
CC(C)C[C@H](NC(=O)[C@H](Cc1ccc(O)cc1)NC(=O)[C@@H](CCCNC(=N)N)NC(=O)[C@@H](CO)NC(=O)[C@H](Cc1ccccc1)NC(=O)[C@H](CC1CCCCC1)NC(=O)[C@H](CC(=O)O)NC(=O)CCOCCOCCOCCOCCNC(=O)[C@H](CCCCNC(=O)CCCc1ccc(I)cc1)NC(=O)CN1CCN(CC(=O)O)CCN(CC(=O)O)CCN(CC(=O)O)CC1)C(=O)N[C@@H](Cc1c[nH]c2ccccc12)C(=O)N[C@@H](CO)C(N)=O [[^177Lu]Lu-uPAR-05, metal not drawn] | 0.11

Could you now look at the following molecule, please?
Data point: CC(C)C[C@H](NC(=O)[C@H](Cc1ccc(O)cc1)NC(=O)[C@@H](CCCNC(=N)N)NC(=O)[C@@H](CO)NC(=O)[C@H](Cc1ccccc1)NC(=O)[C@H](CC1CCCCC1)NC(=O)[C@H](CC(=O)O)NC(=O)[C@H](CCCCNC(=O)CCCc1ccc(I)cc1)NC(=O)CN1CCN(CC(=O)O)CCN(CC(=O)O)CCN(CC(=O)O)CC1)C(=O)N[C@@H](Cc1c[nH]c2ccccc12)C(=O)N[C@@H](CO)C(N)=O [[^177Lu]Lu-uPAR-01, metal not drawn] ; tissue uptake at 24 h = 0.1
